Biological target: BACE1 (Homo sapiens, UniProt P56817)
Sequence (P56817 46-501): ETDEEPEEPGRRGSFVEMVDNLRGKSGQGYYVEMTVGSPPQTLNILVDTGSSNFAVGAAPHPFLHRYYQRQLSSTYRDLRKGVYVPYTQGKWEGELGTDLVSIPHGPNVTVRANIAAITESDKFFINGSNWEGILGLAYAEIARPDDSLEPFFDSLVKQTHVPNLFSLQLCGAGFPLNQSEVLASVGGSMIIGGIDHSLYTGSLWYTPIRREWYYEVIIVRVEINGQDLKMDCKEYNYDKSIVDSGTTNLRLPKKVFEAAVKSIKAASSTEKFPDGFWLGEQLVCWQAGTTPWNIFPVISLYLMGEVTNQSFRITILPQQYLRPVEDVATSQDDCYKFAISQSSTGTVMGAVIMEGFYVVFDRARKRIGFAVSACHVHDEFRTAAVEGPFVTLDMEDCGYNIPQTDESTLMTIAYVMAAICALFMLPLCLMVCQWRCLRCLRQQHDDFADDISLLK
Test: BACE1 biochemical FRET based assay (Test Example 2-1)
Settings: BACE2 IC50 over BACE1 IC50 (FRET)
// returns no unless selectivity is strictly below 30, in which case yes

Qu. # strict comparison: is reported selectivity < 30? input = CN1C(N)=N[C@](C)(c2cc(NC(=O)c3cc4c(cn3)OC(F)(F)O4)ccc2F)CS1(=O)=O [Compound I-012]
Ans. yes

Qu. # strict comparison: is reported selectivity < 30? input = C[C@@H]1C[C@H]2OC(N)=N[C@](CF)(c3cc(NC(=O)c4cc5c(cn4)OC(F)(F)CO5)ccc3F)[C@H]2CO1 [Compound I-053]
Ans. no

Qu. # strict comparison: is reported selectivity < 30? input = CC1(C)C(N)=N[C@](C)(c2cc(NC(=O)c3ncc4c(n3)OCCO4)ccc2F)CS1(=O)=O [Compound I-021]
Ans. yes

Qu. # strict comparison: is reported selectivity < 30? input = C[C@H]1COc2cc(C(=O)Nc3ccc(F)c([C@]4(C)CS(=O)(=O)N(C)C(N)=N4)c3)ncc2O1 [Compound I-008]
Ans. yes

Qu. # strict comparison: is reported selectivity < 30? input = C[C@H]1COc2cnc(C(=O)Nc3ccc(F)c([C@]4(C)CS(=O)(=O)N(C)C(N)=N4)c3)cc2O1 [Compound I-006]
Ans. yes

Qu. # strict comparison: is reported selectivity < 30? input = CN1C(N)=N[C@](C)(c2cc(NC(=O)c3cc4c(cn3)OC(F)(F)CO4)ccc2F)CS1(=O)=O [Compound I-011]
Ans. yes

Qu. # strict comparison: is reported selectivity < 30? input = NC1=N[C@](CF)(c2cc(NC(=O)c3cc4c(cn3)OC[C@H](F)O4)ccc2F)[C@H]2COCC[C@H]2O1 [Compound I-037]
Ans. no

###

Target: BACE2 (Homo sapiens, UniProt Q9Y5Z0)
Sequence (Q9Y5Z0 63-518): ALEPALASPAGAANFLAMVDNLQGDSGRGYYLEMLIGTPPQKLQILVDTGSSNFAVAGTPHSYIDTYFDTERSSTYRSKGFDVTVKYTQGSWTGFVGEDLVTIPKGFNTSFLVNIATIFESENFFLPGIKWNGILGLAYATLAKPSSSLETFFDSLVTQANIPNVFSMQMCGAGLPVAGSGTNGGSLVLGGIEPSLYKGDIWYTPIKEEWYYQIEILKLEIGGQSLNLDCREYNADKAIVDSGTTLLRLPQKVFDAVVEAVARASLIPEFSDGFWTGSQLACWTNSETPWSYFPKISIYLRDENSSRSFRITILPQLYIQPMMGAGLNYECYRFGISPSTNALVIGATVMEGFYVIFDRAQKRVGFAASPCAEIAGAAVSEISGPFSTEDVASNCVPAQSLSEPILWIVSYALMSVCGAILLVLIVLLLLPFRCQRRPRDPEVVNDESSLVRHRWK
Experiment: BACE2 biochemical FRET based assay (Test Example 2-4)
Conditions: recombinant BACE2 0.4 μg/mL, 10 μM substrate, 450 minutes, pH 5.0; read-out: BACE2 Biochemical FRET based assay pIC50 (converted)
measurement name: log10(IC50) (log10 of the value in µM)
Kindly note that the scale is log10 and the underlying IC50 is in µM.

Qu. Value lookup for log10(IC50); key = [2H]C1([2H])Oc2cnc(C(=O)Nc3ccc(F)c(C4(C)CCC(CF)(S(=O)(=O)CC)C(N)=N4)c3)cc2OC1([2H])[2H] (stereo not shown)
Ans. -0.30

Qu. Value lookup for log10(IC50); key = CC1(S(C)(=O)=O)CCC(CF)(c2cc(NC(=O)c3cc4c(cn3)OCC(F)O4)ccc2F)N=C1N (stereo not shown)
Ans. -0.48

Qu. Value lookup for log10(IC50); key = CC1(S(C)(=O)=O)CCC(CF)(c2cc(NC(=O)c3ncc4c(c3Cl)OCCO4)ccc2F)N=C1N (stereo not shown)
Ans. -0.07

Qu. Value lookup for log10(IC50); key = CC1(S(C)(=O)=O)CCC(CF)(c2cc(NC(=O)c3ncc4c(c3F)OCCO4)ccc2F)N=C1N (stereo not shown)
Ans. -0.51

Qu. Value lookup for log10(IC50); key = CCS(=O)(=O)[C@]1(C)CC[C@@](CF)(c2cc(NC(=O)c3cc4c(cn3)OC(F)(F)O4)ccc2F)N=C1N [II-21]
Ans. -0.69

Qu. Value lookup for log10(IC50); key = C[C@@]1(S(C)(=O)=O)CC[C@@](CF)(c2cc(NC(=O)c3cc4c(cn3)OC(F)(F)CO4)ccc2F)N=C1N [II-10]
Ans. -1.18

Qu. Value lookup for log10(IC50); key = [2H]C1([2H])Oc2cnc(C(=O)Nc3ccc(F)c([C@]4(CF)CC[C@@](C)(S(C)(=O)=O)C(N)=N4)c3)cc2OC1([2H])[2H] [II-2]
Ans. -0.64

###

Record form. Attribute: log10 of IC50. Fill in for each entry.
Target: BACE2 (Homo sapiens)
Test: BACE2 biochemical FRET based assay (Test Example 2-1 (2))
Conditions: 0.4 μg/mL BACE2, 450 minutes, Citrate buffer pH 5.0
Kindly note that the scale is log10 and the underlying IC50 is in nM.

Qu. # get_value(readout= log10 of IC50, system= BACE2 (Homo sapiens)) for C[C@H]1OC[C@H]2OC(N)=N[C@](CF)(c3cc(NC(=O)c4cc5c(cn4)OC(F)(F)CO5)ccc3F)[C@@H]12
Ans. 2.69

Qu. # get_value(readout= log10 of IC50, system= BACE2 (Homo sapiens)) for C[C@@H]1COc2cc(C(=O)Nc3ccc(F)c([C@]4(C)CS(=O)(=O)N(C)C(N)=N4)c3)ncc2O1
Ans. 2.13

Qu. # get_value(readout= log10 of IC50, system= BACE2 (Homo sapiens)) for C[C@@H]1OC[C@H]2OC(N)=N[C@](CF)(c3cc(NC(=O)c4cc5c(cn4)OC(F)(F)CO5)ccc3F)[C@@H]12
Ans. 3.28

Qu. # get_value(readout= log10 of IC50, system= BACE2 (Homo sapiens)) for C[C@H]1COc2cnc(C(=O)Nc3ccc(F)c([C@]4(C)CS(=O)(=O)N(C)C(N)=N4)c3)cc2O1
Ans. 2.65

Qu. # get_value(readout= log10 of IC50, system= BACE2 (Homo sapiens)) for C[C@@H]1C[C@H]2OC(N)=N[C@](CF)(c3cc(NC(=O)c4cc5c(cn4)OCCO5)ccc3F)[C@H]2CO1
Ans. 3.78

Qu. # get_value(readout= log10 of IC50, system= BACE2 (Homo sapiens)) for NC1=N[C@](CF)(c2cc(NC(=O)c3cc4c(cn3)OC(F)(F)CO4)ccc2F)[C@H]2OCC[C@H]2O1
Ans. 3.36

Qu. # get_value(readout= log10 of IC50, system= BACE2 (Homo sapiens)) for NC1=N[C@](CF)(c2cc(NC(=O)c3cc4c(cn3)OC[C@H](F)O4)ccc2F)[C@H]2COCC[C@H]2O1
Ans. 3.74

Qu. # get_value(readout= log10 of IC50, system= BACE2 (Homo sapiens)) for CN1C(N)=N[C@](C)(c2cc(NC(=O)c3cc4c(cn3)O[C@H](F)CO4)ccc2F)CS1(=O)=O
Ans. 1.13

Qu. # get_value(readout= log10 of IC50, system= BACE2 (Homo sapiens)) for CC[C@@H]1OC[C@H]2OC(N)=N[C@](CF)(c3cc(NC(=O)c4cc5c(cn4)OC(F)(F)CO5)ccc3F)[C@@H]12
Ans. 3.31

###

Record form. Attribute: IC50. Fill in for each entry.
Target: BACE1 (Homo sapiens, UniProt P56817)
Assay: BACE1 biochemical FRET based assay - Method 1 (Test Example 2-2)
Details: 0.04 μg/mL BACE1, 450 minutes, Citrate buffer pH 5.0, read-out: BACE1 Biochemical FRET based assay - Method 1 PIC50 (converted)
Respond with the bare value in nM.

Qu. Value lookup for IC50; key = CCS(=O)(=O)[C@]1(CF)CC[C@@](C)(c2cc(NC(=O)c3cc4c(cn3)OC(F)(F)O4)ccc2F)N=C1N [II-35]
Ans. 5.37

Qu. Value lookup for IC50; key = [2H]C1([2H])Oc2cnc(C(=O)Nc3ccc(F)c(C4(CF)CCC(C)(S(C)(=O)=O)C(N)=N4)c3)c(F)c2OC1([2H])[2H] (stereo not shown) [II-12]
Ans. 4.07

Qu. Value lookup for IC50; key = CC1(S(C)(=O)=O)CCC(CF)(c2cc(NC(=O)c3ncc4c(c3F)OC(F)(F)O4)ccc2F)N=C1N (stereo not shown) [II-13]
Ans. 9.77

Qu. Value lookup for IC50; key = CCS(=O)(=O)C1(C)CCC(CF)(c2cc(NC(=O)c3cc4c(cn3)OC(F)(F)CO4)ccc2F)N=C1N (stereo not shown) [II-19]
Ans. 1.58

Qu. Value lookup for IC50; key = CC1(S(C)(=O)=O)CCC(CF)(c2cc(NC(=O)c3cc4c(cn3)OCO4)ccc2F)N=C1N (stereo not shown) [II-4]
Ans. 2.34

Qu. Value lookup for IC50; key = C[C@@]1(S(C)(=O)=O)CC[C@@](CF)(c2cc(NC(=O)c3cc4c(cn3)OC(F)(F)CO4)ccc2F)N=C1N [II-10]
Ans. 1.38

Qu. Value lookup for IC50; key = [2H]C1([2H])Oc2cnc(C(=O)Nc3ccc(F)c([C@]4(CF)CC[C@@](C)(S(C)(=O)=O)C(N)=N4)c3)cc2OC1([2H])[2H] [II-2]
Ans. 2.82
